# TARGET_DESC: human HER3 endogenously expressed on human cancer cells (SK-Br-3, BT-474, MCF7) (human, UniProt P21860 20-1342)
# EXPERIMENTAL_PROTOCOL: cell-based or functional assay
RESULT_TYPE: MCF7 pHER3 % inhibition (%)
Please respond with the number in % and leave the unit unwritten.

Look over these answered cases.
# BINDER, RESULT_TYPE, RESULT
data = [
    ("MOR12615 (antibody, human IgG1, lambda, V domains shown, Tested as IgG) VH: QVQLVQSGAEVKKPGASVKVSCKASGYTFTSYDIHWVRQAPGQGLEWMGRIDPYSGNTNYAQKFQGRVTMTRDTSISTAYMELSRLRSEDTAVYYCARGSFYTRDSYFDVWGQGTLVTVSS VL: DIALTQPASVSGSPGQSITISCTGTSSDVGTYNQVSWYQQHPGKAPKLMIYGVSKRPSGVSNRFSGSKSGNTASLTISGLQAEDEADYYCSSRDLIGHYVFGGGTKLTVLG", "MCF7 pHER3 % inhibition", 75),
    ("MOR12514 (antibody, human IgG1, lambda, V domains shown, Tested as IgG) VH: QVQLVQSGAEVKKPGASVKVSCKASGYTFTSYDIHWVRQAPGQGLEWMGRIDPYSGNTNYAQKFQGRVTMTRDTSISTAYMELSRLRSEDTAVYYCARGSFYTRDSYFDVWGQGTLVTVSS VL: DIALTQPASVSGSPGQSITISCTGTSSDVGTYNQVSWYQQHPGKAPKLMIYGVSKRPSGVSNRFSGSKSGNTASLTISGLQAEDEADYYCQVRDMSLFDVFGGGTKLTVLG", "MCF7 pHER3 % inhibition", 67),
]

Please turn your attention to the following entry.
-- ask Respond only with MCF7 pHER3 % inhibition recorded for MOR12921 (antibody, human IgG1, lambda, V domains shown, Tested as IgG) VH: QVQLVQSGAEVKKPGASVKVSCKASGYTFTGYYMHWVRQAPGQGLEWMGDIDPHSGNAVYAQKFQGRVTMTRDTSISTAYMELSRLRSEDTAVYYCARGSFYTRDSYFDVWGQGTLVTVSS VL: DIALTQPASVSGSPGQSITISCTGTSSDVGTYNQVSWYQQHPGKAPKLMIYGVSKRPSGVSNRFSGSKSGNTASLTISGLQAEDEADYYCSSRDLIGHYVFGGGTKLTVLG
-- reply 79

All values here come from patent US20130251703A1.
